System: Sunflower
Assay: Test C preemergence
Type: in vivo
Conditions: Rate 62 g/ha; scale 0 to 100, 0 no effect, 100 complete control
Recorded Endpoint: Plant response rating, Sunflower
Lab note: record the figure alone, no unit after it.

Past entries and their recorded results:
CCC(C)c1ccn(C2SCN(c3cccc(OC(F)(F)F)c3)C2=O)n1 (stereo not drawn)	0
CC(C)(C)c1ccn(C2CCN(c3cccc(Cl)c3)C2=O)n1 (stereo not drawn)	0
O=C1C(n2ccc(C3CCCCC3)n2)SCN1c1cccc(OC(F)(F)F)c1 (stereo not drawn)	20
CC(C)(C)c1ccn(C2CCN(c3cccc(OC(F)(F)F)c3)C2=O)n1 (stereo not drawn)	20
O=C1C(n2ccc(C3CCC3)n2)OCN1c1cccc(C(F)(F)F)c1 (stereo not drawn)	0

Now turn to the next molecule.
Hi! What's the reported Plant response rating, Sunflower for CCC(CC)c1ccn(C2SCN(c3cccc(C(F)(F)F)c3)C2=O)n1 (stereo not drawn) on Sunflower?
30
